runDescription: protein stability index of a GFP-peptide fusion (yeast GPS) (PSI 1-4); higher = more stable; sorted into four equal gates, so the index is relative within each strain
testConditions: doa10∆
In this section we review reported protein stability index values for a set of sequences.
Respond using a number only.

>>> obsvalue("ITKLNKEIRAFDKLLNI [SRB4]")
3.41
>>> obsvalue("TIEKDKMKIQETISKLN [SMC2]")
1.71
>>> obsvalue("VRTNRFDIIEESFKGLQ [ECM29]")
2.6
>>> obsvalue("CIPLVGISVPFHSTYLM [FAS1]")
1.43
>>> obsvalue("VNGAKNLVVSGPPQSLY [FAS1]")
2.07

Turning now to a further sequence:
protein stability index measured on GFGRKGKAKGDIPGVRF [RPS23A] = 3.19

* * *

runDescription: protein stability index of a GFP-peptide fusion (yeast GPS) (PSI 1-4); higher = more stable; sorted into four equal gates, so the index is relative within each strain
testConditions: pdr5∆
In this section we review reported protein stability index values for a set of sequences.
Respond using a number only.

Here are 5 sequences together with their reported answers.
>>> obsvalue("QNEMIDAIAVTKGHGFE [RPL3]")
3.21
>>> obsvalue("PAFSNSNGFNNVTFGSK [YMR153W/NUP53]")
2.96
>>> obsvalue("VPVRSFKGHSHIVQDCT [ASC1]")
3.11
>>> obsvalue("LAAVPAAGPASAGGAAA [RPP2A]")
1.58
>>> obsvalue("EFIAAVNNPQEETSHLL [RPN10]")
3

Turning now to a further sequence:
protein stability index measured on TAEAPTLSFNFSQKANK [YOR098C/NUP1] = 3.27

* * *

runDescription: protein stability index of a GFP-peptide fusion (yeast GPS) (PSI 1-4); higher = more stable; sorted into four equal gates, so the index is relative within each strain
testConditions: pdr5∆
In this section we review reported protein stability index values for a set of sequences.
Respond using a number only.

Here are 2 sequences together with their reported answers.
>>> obsvalue("NDHSKSANPKKTTITRV [SWI3]")
3.09
>>> obsvalue("LTYAQQQLNKQRQDFER [SNF6]")
2.44

protein stability index measured on KNLNPASSSPSSTDFST [ECM29] = 2.81

protein stability index measured on LYQDMAARHRARFRSIH [RPL20A] = 2.71

protein stability index measured on SDNVSFEIQGVPPMKLA [YMR129W/POM152] = 3.18

protein stability index measured on VYLSLLDKDSSQSSAAA [RPN6] = 3.21

protein stability index measured on NALDKLRNNLNSLIEEI [YCG1] = 3.26

* * *

runDescription: protein stability index of a GFP-peptide fusion (yeast GPS) (PSI 1-4); higher = more stable; sorted into four equal gates, so the index is relative within each strain
testConditions: pdr5∆
parameter: protein stability index

>>> obsvalue("RKQRVKKKTKKELELER [SWI1]")
2.96
>>> obsvalue("RKMTTDDDINWQELARS [RPT5]")
2.93
>>> obsvalue("NNNINENELFNDRKQTT [SSN2]")
3.09

Turning now to a further sequence:
protein stability index measured on QMMQQAQQKLKQNPGLM [SRP54] = 3.07

* * *

runDescription: protein stability index of a GFP-peptide fusion (yeast GPS) (PSI 1-4); higher = more stable; sorted into four equal gates, so the index is relative within each strain
testConditions: ubr1∆
Quick rule: protein stability index of at least 3 means met, below that means not met.

Reference set, count: 3
>>> classassignment("KCPLLVEVDITLSPNVT [GRR1]")
"not met"
>>> classassignment("IVVATEHNPSAHTASVG [COR1]")
"not met"
>>> classassignment("DTRFGGRMDMTRLYDYE [SSN2]")
"met"

Given MLGEDEGNTVLEKGNNP [SWP82] , state whether its protein stability index is at least 3. met

Given ENSYLRGLTPQEFFFHA [RPO21] , state whether its protein stability index is at least 3. not met

Given DPAHSLNYTVINFKSRE [AAR2] , state whether its protein stability index is at least 3. met

Given MPRLEEIDDFNDIDDLD [SEC65] , state whether its protein stability index is at least 3. met

Given EGNAGGDQKTSENRNNI [YOR098C/NUP1] , state whether its protein stability index is at least 3. met

Given LDDLVVLKKKNIQKKQP [RRP6] , state whether its protein stability index is at least 3. not met

Given DDKYGRKFALEKLYIFY [SRP72] , state whether its protein stability index is at least 3. not met

Given EQSELLKAQITSLKCLV [SNF2] , state whether its protein stability index is at least 3. not met

Given NRYAFSQPTNSTTTSLH [SMC4] , state whether its protein stability index is at least 3. not met

Given ISKQKSKLDYIFKDKEK [SMC1] , state whether its protein stability index is at least 3. met

Given VSKFYDKINQLSVVKYL [RPN9] , state whether its protein stability index is at least 3. not met

Given DVKVIMATNKIETLDPA [RPT2] , state whether its protein stability index is at least 3. not met

Given WRKWNVKVNHNEKRYAT [RPL4A] , state whether its protein stability index is at least 3. not met

Given YLLEELESYLIVHHPYQ [SSN8] , state whether its protein stability index is at least 3. not met

Given KEDSTIQDSNGDVKNME [SWI3] , state whether its protein stability index is at least 3. met

Given VNLPGGILRRKSESDEL [RRP4] , state whether its protein stability index is at least 3. met

Given AEFILKNRSTIFWGIRL [BRR2] , state whether its protein stability index is at least 3. not met

Given FYLMVSSLSFGPENALN [YJL039C/NUP192] , state whether its protein stability index is at least 3. not met

The measured values listed here are drawn from the supplement of paper PMC9732359.
